- experimental_details: TOX21_p53_BLA_p5_viability: Viability Assessment in the Tox21 HCT-116 p53 Agonism Beta-lactamase Assay, Phase 5 (AID 2283600)
Records with an inconclusive call do not appear. Calls of active or inactive are those of the source. How the source made its calls: active means hit-call score of the fitted dose curve at least 0.9, where 1 is the maximum; inconclusive means response in the unintended direction; inactive means score below 0.9.
Give your call using only these classes: active, inactive

Some entries whose results are on file:
1) CCCCCCCCCCCSCC(=O)O ... active
2) C1CN(SSN2CCOCC2)CCO1 ... inactive

Q: Answer briefly: the call reported for `O=c1c2ccccc2nnn1CCl` in this assay.
A: inactive

Q: GET /call?item= C=CCOCC(O)CCl (stereo not given) returns the recorded outcome of this test.
A: inactive

Q: Could you check what this test reported for `O=C(Nc1cccc(C(F)(F)F)c1)c1cc(Br)cc(Br)c1O` ?
A: inactive

Q: // return assay outcome for `CCCCOCCOC(=O)COc1nc(Cl)c(Cl)cc1Cl`
A: inactive

Q: Called result for `C=C[Si](OC(C)=O)(OC(C)=O)OC(C)=O`
A: inactive

Q: Can you look up the reported call for `COc1ccc(-c2coc3cc(O)ccc3c2=O)cc1` for me?
A: inactive

Q: I would be grateful if you could indicate the recorded call for `CN(C)CCCN(C)C` .
A: inactive

Q: Outcome logged for `Cn1c([N+](=O)[O-])cnc1COC(N)=O` in this assay:
A: inactive
